Listed molecules paired with reported GI50
tested on: RXF 393 renal; test: NCI tumour cell line growth inhibition, 48 h

These recorded examples may help you get a feel for the data.
Molecule	Study target	Measured endpoint	Measured result
CCCCCCCCn1ccc2cc(NC(=O)Cn3cc(CN4CCCCC4)nn3)ccc21	RXF 393 renal	GI50	1.46 µM
CCCCCCCCC(=O)OCC(CS[As](C)C)OC(=O)CCCCCCCC (stereo unspecified)	RXF 393 renal	GI50	0.548 µM
COc1ccc2nc3cc(Cl)ccc3c(Sc3ccc([N+](=O)[O-])cc3)c2c1	RXF 393 renal	GI50	> 100 µM
NC(N)=N/N=C/c1ccc(-c2ccc(-c3cc(Cl)cc(Cl)c3)s2)cc1	RXF 393 renal	GI50	1.67 µM
CCN(CC)C1CCC(Nc2c(C(C)=O)cnc3ccc(-c4ccc(O)c(Cl)c4)cc23)CC1 (stereo unspecified)	RXF 393 renal	GI50	0.615 µM

Turning to the following molecule.
Would you kindly share the measured GI50 for "Clc1ccc(OCc2nnc3n2N=C(c2ccc(Cl)cc2Cl)CS3)cc1" ?
13.7 µM

* * *

Listed compounds paired with reported TGI
system: KM12 colon; test: NCI tumour cell line growth inhibition, 48 h

These recorded examples may help you get a feel for the data.
Compound	TGI
O=C(Nc1cccc2c1[nH]c1c(-c3ccccc3)nccc12)c1ccccc1[N+](=O)[O-]	> 100 µM
COc1ccc2nc3cc(Cl)ccc3c(Sc3ccc([N+](=O)[O-])cc3)c2c1	> 100 µM
CC(OC(=O)C(CC(=O)OC(C)(C)C)NC(=O)OC(C)(C)C)C(=O)OCc1ccccc1 (centres undefined)	> 100 µM

Can you look up TGI on KM12 colon for COc1ccc(C2C=C(c3ccc4c(c3)OCO4)Oc3c2c(=O)oc2ccccc32)cc1OC (centres undefined) ?
> 100 µM

Next compound: NNC(=O)N/N=C1\C(=O)N(c2ccc(Cl)c(Cl)c2)C(=O)C(=O)C1c1nc2ccccc2s1 (centres undefined)
> 100 µM

Next compound: NN1C(=O)C(CCO)S/C1=N/N=C1/SC(CCO)C(=O)N1N (centres undefined)
> 100 µM

Next compound: "O=C(/C(=C\c1ccc(Cl)cc1)c1ccccc1)c1ccccc1"
74.3 µM

Next compound: "COc1cc2c(cc1OC)C1Cc3cc(OC)c(OC)cc3C(C2)N1C"
> 100 µM

Next compound: COc1cc(C2C(Cl)C(=O)N2NC(=O)c2ccc(N)cc2)cc(Br)c1O (centres undefined)
30.7 µM

Next compound: "Clc1ccc(OCc2nnc3n2N=C(c2ccc(Cl)cc2Cl)CS3)cc1"
54.4 µM

Next compound: "COc1ccc(Nc2cc(C)nc(NCCCNc3ccnc4cc(Cl)ccc34)n2)cc1"
3.58 µM

Next compound: "O=C(C/C(=N/O)c1cc(-c2ccccc2)no1)c1ccccc1"
> 100 µM

Next compound: "COC(=O)/C=C/C1(O)C=CC(=O)C=C1"
5.61 µM

Next compound: COC(=O)C1=C(OC(=O)/C=C/c2ccc(Cl)cc2)C(C(=O)OC)[C@@]2(O)[C@@H](C(=O)OC)[C@H](C)C[C@@H]1[C@@H]2C(=O)OC (some centres undefined)
> 100 µM

Next compound: "CN1CCC2(CC1)C(=NC1CCCCC1)NC(=S)N2c1ccccc1"
> 100 µM

Next compound: COc1ccc(C2C(C)C(=O)C(C)C(c3ccc(OC)cc3)N2N=O)cc1 (centres undefined)
> 1000 µM
